# System: Pasteurella multocida
# assayMethodText: minimum inhibitory concentration (MIC)
# conditionInfo: isolate (source animal id): 284

compound: CC[C@H]1OC(=O)C[C@@H](O)[C@H](C)[C@@H](O[C@@H]2O[C@H](C)[C@@H](O[C@H]3C[C@@](C)(O)[C@@H](O)[C@H](C)O3)[C@H](N(C)C)[C@H]2O)[C@@H](CC=O)C[C@@H](C)C(=O)/C=C/C(C)=C/[C@@H]1CO[C@@H]1O[C@H](C)[C@@H](O)[C@@H](OC)[C@H]1OC
studySystem: Pasteurella multocida
unitsSymbol: µg/mL
comparativeSign: >
minimum inhibitory concentration: 32
//
compound: CO/N=C(\C(=O)N[C@@H]1C(=O)N2C(C(=O)O)=C(CSC(=O)c3ccco3)CS[C@H]12)c1csc(N)n1
studySystem: Pasteurella multocida
unitsSymbol: µg/mL
comparativeSign: ≤
minimum inhibitory concentration: 0.25
//
compound: CNC(C)C1CCC(N)C(OC2C(N)CC(N)C(OC3OCC(C)(O)C(NC)C3O)C2O)O1 (stereo not drawn)
studySystem: Pasteurella multocida
unitsSymbol: µg/mL
comparativeSign: =
minimum inhibitory concentration: 8
//
compound: CN[C@@H]1[C@H](O)[C@H](NC)[C@H]2O[C@@]3(O)C(=O)C[C@@H](C)O[C@H]3O[C@@H]2[C@H]1O
studySystem: Pasteurella multocida
unitsSymbol: µg/mL
comparativeSign: =
minimum inhibitory concentration: 32
//
compound: CC1(C)S[C@@H]2[C@H](NC(=O)Cc3ccccc3)C(=O)N2[C@H]1C(=O)O
studySystem: Pasteurella multocida
unitsSymbol: µg/mL
comparativeSign: =
minimum inhibitory concentration: 0.25
//
compound: CCN1CCN(c2cc3c(cc2F)c(=O)c(C(=O)O)cn3C2CC2)CC1
studySystem: Pasteurella multocida
unitsSymbol: µg/mL
comparativeSign: =
minimum inhibitory concentration: 2
//
compound: COc1cc(NS(=O)(=O)c2ccc(N)cc2)nc(OC)n1
studySystem: Pasteurella multocida
unitsSymbol: µg/mL
comparativeSign: >
minimum inhibitory concentration: 256
//
compound: CC[C@H]1OC(=O)C[C@@H](O)[C@H](C)[C@@H](O[C@@H]2O[C@H](C)[C@@H](O)[C@H](N(C)C)[C@H]2O)[C@@H](CCN2CCCCC2)C[C@@H](C)C(=O)/C=C/C(C)=C/[C@@H]1CN1CCCCC1
studySystem: Pasteurella multocida
unitsSymbol: µg/mL
comparativeSign: >
minimum inhibitory concentration: 16

----------
# Tested on: Pasteurella multocida
# assayMethodText: minimum inhibitory concentration (MIC)
# conditionInfo: isolate (source animal id): 115
Listing of entries alongside the reported minimum inhibitory concentration.
recordedEndpoint: minimum inhibitory concentration

molecule: C=C[C@]1(C)C[C@@H](OC(=O)CSCCN(CC)CC)[C@]2(C)[C@H](C)CC[C@]3(CCC(=O)[C@H]32)[C@@H](C)[C@@H]1O [Tiamulin]
studySystem: Pasteurella multocida
recordedEndpoint: minimum inhibitory concentration
readoutValue: 32 µg/mL

molecule: COc1cc(NS(=O)(=O)c2ccc(N)cc2)nc(OC)n1 [sulfadimethoxine]
studySystem: Pasteurella multocida
recordedEndpoint: minimum inhibitory concentration
readoutValue: > 256 µg/mL

molecule: CCCNC[C@]1(O)[C@H](C)O[C@@H](O[C@H]2[C@H](C)[C@@H](O[C@@H]3O[C@H](C)C[C@H](N(C)C)[C@H]3O)[C@](C)(O)C[C@@H](C)CN[C@H](C)[C@@H](O)[C@](C)(O)[C@@H](CC)OC(=O)[C@@H]2C)C[C@@]1(C)OC [Tulathromycin]
studySystem: Pasteurella multocida
recordedEndpoint: minimum inhibitory concentration
readoutValue: 32 µg/mL

molecule: CC[C@H]1OC(=O)C[C@@H](O)[C@H](C)[C@@H](O[C@@H]2O[C@H](C)[C@@H](O)[C@H](N(C)C)[C@H]2O)[C@@H](CCN2CCCCC2)C[C@@H](C)C(=O)/C=C/C(C)=C/[C@@H]1CN1CCCCC1 [Tildipirosin]
studySystem: Pasteurella multocida
recordedEndpoint: minimum inhibitory concentration
readoutValue: > 16 µg/mL

molecule: CC[C@H]1OC(=O)C[C@@H](O)[C@H](C)[C@@H](O[C@@H]2O[C@H](C)[C@@H](O[C@H]3C[C@@](C)(O)[C@@H](O)[C@H](C)O3)[C@H](N(C)C)[C@H]2O)[C@@H](CC=O)C[C@@H](C)C(=O)/C=C/C(C)=C/[C@@H]1CO[C@@H]1O[C@H](C)[C@@H](O)[C@@H](OC)[C@H]1OC [Tylosin]
studySystem: Pasteurella multocida
recordedEndpoint: minimum inhibitory concentration
readoutValue: > 32 µg/mL

molecule: CC[C@H]1OC(=O)C[C@@H](O)[C@H](C)[C@@H](O[C@@H]2O[C@H](C)[C@@H](O)[C@H](N(C)C)[C@H]2O)[C@@H](CCN2C[C@H](C)C[C@H](C)C2)C[C@@H](C)C(=O)/C=C/C(C)=C/[C@@H]1CO[C@@H]1O[C@H](C)[C@@H](O)[C@@H](OC)[C@H]1OC [Tilmicosin]
studySystem: Pasteurella multocida
recordedEndpoint: minimum inhibitory concentration
readoutValue: > 16 µg/mL

----------
# System: Histophilus somni
# assayMethodText: minimum inhibitory concentration (MIC)
# conditionInfo: isolate (source animal id): 146
recordedEndpoint: minimum inhibitory concentration (µg/mL)

substanceSmiles: CCCN1C[C@H](C)[C@@H](O)[C@](C)(O)[C@@H](CC)OC(=O)[C@H](C)[C@@H](O[C@H]2C[C@@](C)(OC)[C@@H](O)[C@H](C)O2)[C@H](C)[C@@H](O[C@@H]2O[C@H](C)C[C@H](N(C)C)[C@H]2O)[C@](C)(O)C[C@H]1C
comparativeSign: =
readoutValue: 4
//
substanceSmiles: NC[C@@H]1O[C@H](O[C@H]2[C@@H](O)[C@H](O[C@@H]3[C@@H](O)[C@H](N)C[C@H](N)[C@H]3O[C@H]3O[C@H](CN)[C@@H](O)[C@H](O)[C@H]3N)O[C@@H]2CO)[C@H](N)[C@@H](O)[C@@H]1O
comparativeSign: >
readoutValue: 32

----------
# Test system: Histophilus somni
# assayMethodText: minimum inhibitory concentration (MIC)
# conditionInfo: isolate (source animal id): 274

molecule: CNC(C)C1CCC(N)C(OC2C(N)CC(N)C(OC3OCC(C)(O)C(NC)C3O)C2O)O1 (stereo unspecified) [Gentamicin]
studySystem: Histophilus somni
minimum inhibitory concentration: 4 µg/mL
--
molecule: CC[C@H]1OC(=O)C[C@@H](O)[C@H](C)[C@@H](O[C@@H]2O[C@H](C)[C@@H](O[C@H]3C[C@@](C)(O)[C@@H](O)[C@H](C)O3)[C@H](N(C)C)[C@H]2O)[C@@H](CC=O)C[C@@H](C)C(=O)/C=C/C(C)=C/[C@@H]1CO[C@@H]1O[C@H](C)[C@@H](O)[C@@H](OC)[C@H]1OC [Tylosin]
studySystem: Histophilus somni
minimum inhibitory concentration: 8 µg/mL
--
molecule: NC[C@@H]1O[C@H](O[C@H]2[C@@H](O)[C@H](O[C@@H]3[C@@H](O)[C@H](N)C[C@H](N)[C@H]3O[C@H]3O[C@H](CN)[C@@H](O)[C@H](O)[C@H]3N)O[C@@H]2CO)[C@H](N)[C@@H](O)[C@@H]1O [Neomycin]
studySystem: Histophilus somni
minimum inhibitory concentration: 32 µg/mL
--
molecule: CCCNC[C@]1(O)[C@H](C)O[C@@H](O[C@H]2[C@H](C)[C@@H](O[C@@H]3O[C@H](C)C[C@H](N(C)C)[C@H]3O)[C@](C)(O)C[C@@H](C)CN[C@H](C)[C@@H](O)[C@](C)(O)[C@@H](CC)OC(=O)[C@@H]2C)C[C@@]1(C)OC [Tulathromycin]
studySystem: Histophilus somni
minimum inhibitory concentration: ≤ 8 µg/mL
--
molecule: CCCN1C[C@H](C)[C@@H](O)[C@](C)(O)[C@@H](CC)OC(=O)[C@H](C)[C@@H](O[C@H]2C[C@@](C)(OC)[C@@H](O)[C@H](C)O2)[C@H](C)[C@@H](O[C@@H]2O[C@H](C)C[C@H](N(C)C)[C@H]2O)[C@](C)(O)C[C@H]1C [Gamithromycin]
studySystem: Histophilus somni
minimum inhibitory concentration: ≤ 1 µg/mL
--
molecule: CC1(C)S[C@@H]2[C@H](NC(=O)Cc3ccccc3)C(=O)N2[C@H]1C(=O)O [Penicillin]
studySystem: Histophilus somni
minimum inhibitory concentration: ≤ 0.12 µg/mL

----------
# Tested on: Pasteurella multocida
# assayMethodText: minimum inhibitory concentration (MIC)
# conditionInfo: isolate (source animal id): 213
Catalogue of compounds with associated minimum inhibitory concentration

substanceSmiles: CCC[C@@H]1C[C@@H](C(=O)N[C@@H]([C@H]2O[C@H](SC)[C@H](O)[C@@H](O)[C@H]2O)[C@H](C)Cl)N(C)C1
minimum inhibitory concentration: > 16 mg/L

substanceSmiles: C=C[C@]1(C)C[C@@H](OC(=O)CSCCN(CC)CC)[C@]2(C)[C@H](C)CC[C@]3(CCC(=O)[C@H]32)[C@@H](C)[C@@H]1O
minimum inhibitory concentration: 16 mg/L

substanceSmiles: CCCNC[C@]1(O)[C@H](C)O[C@@H](O[C@H]2[C@H](C)[C@@H](O[C@@H]3O[C@H](C)C[C@H](N(C)C)[C@H]3O)[C@](C)(O)C[C@@H](C)CN[C@H](C)[C@@H](O)[C@](C)(O)[C@@H](CC)OC(=O)[C@@H]2C)C[C@@]1(C)OC
minimum inhibitory concentration: ≤ 8 mg/L
